Data credit: PubChem BioAssay (NCI)

System: PC-3 prostate
Test: NCI tumour cell line growth inhibition, 48 h; in the data active = GI50 below about 0.43 µM; inactive = the rest
Classes used: active, inactive

| Compound | Class label |
| --- | --- |
| COc1ccc(-c2noc(C(=O)O)c2-c2cc(OC)c(OC)c(OC)c2)cc1 | inactive |
| O=C(NCC1CC1)c1ccc(-c2cccc(C(=O)NC3CC3)c2)cc1 | inactive |
| COc1cc(/C=C/C(=O)/C=C/c2cc(OC)c3c(c2)OCO3)cc2c1OCO2 | inactive |
| O=S(=O)(/N=c1\scc(-c2ccccc2)n1-c1ccccc1)c1ccc(N2N=C3c4ccccc4CC3C2c2ccc(Cl)cc2)cc1 (configuration not stated) | inactive |
| CCSC1=NC2C(N(CC)C(=O)N2CC)N1/N=C/C=C/c1ccccc1[N+](=O)[O-] (configuration not stated) | active |
| CC(CO)Nc1cc(-c2[nH]c3cccnc3c2-c2ccc(F)cc2)ccn1 (configuration not stated) | inactive |
| O=C(c1ccc2ccccc2c1)c1c(C(F)(F)F)n([O-])c2ccc(C(F)(F)F)cc2[n+]1=O | active |
| O=C(/C=C(/C=C/c1ccc2[nH]ccc2c1)OB(F)F)/C=C/c1ccc2[nH]ccc2c1 | inactive |
| COc1cccc(-c2nc3cc(NC(=O)c4ccc(Cl)c(C#N)c4)ccc3o2)c1 | inactive |
| O=C(O)c1nc(NCc2nc3cc(Cl)ccc3o2)n[nH]1 | inactive |
| O=C(Oc1cccnc1)c1cccnc1Nc1ccnc(C(F)(F)F)c1 | inactive |
| O=C1/C(=C/c2ccc([N+](=O)[O-])cc2)CN(C(=O)CCN2CCC(=NO)CC2)C/C1=C\c1ccc([N+](=O)[O-])cc1 | inactive |
